# Target Desc: T1, purified ALK protein (BLitz, Table 20) (Homo sapiens (Human), UniProt Q9UM73 19-1038, limits assumed)
# T1 construct: also called purified ALK proteins
# T1 sequence (Q9UM73 19-1038 limits assumed): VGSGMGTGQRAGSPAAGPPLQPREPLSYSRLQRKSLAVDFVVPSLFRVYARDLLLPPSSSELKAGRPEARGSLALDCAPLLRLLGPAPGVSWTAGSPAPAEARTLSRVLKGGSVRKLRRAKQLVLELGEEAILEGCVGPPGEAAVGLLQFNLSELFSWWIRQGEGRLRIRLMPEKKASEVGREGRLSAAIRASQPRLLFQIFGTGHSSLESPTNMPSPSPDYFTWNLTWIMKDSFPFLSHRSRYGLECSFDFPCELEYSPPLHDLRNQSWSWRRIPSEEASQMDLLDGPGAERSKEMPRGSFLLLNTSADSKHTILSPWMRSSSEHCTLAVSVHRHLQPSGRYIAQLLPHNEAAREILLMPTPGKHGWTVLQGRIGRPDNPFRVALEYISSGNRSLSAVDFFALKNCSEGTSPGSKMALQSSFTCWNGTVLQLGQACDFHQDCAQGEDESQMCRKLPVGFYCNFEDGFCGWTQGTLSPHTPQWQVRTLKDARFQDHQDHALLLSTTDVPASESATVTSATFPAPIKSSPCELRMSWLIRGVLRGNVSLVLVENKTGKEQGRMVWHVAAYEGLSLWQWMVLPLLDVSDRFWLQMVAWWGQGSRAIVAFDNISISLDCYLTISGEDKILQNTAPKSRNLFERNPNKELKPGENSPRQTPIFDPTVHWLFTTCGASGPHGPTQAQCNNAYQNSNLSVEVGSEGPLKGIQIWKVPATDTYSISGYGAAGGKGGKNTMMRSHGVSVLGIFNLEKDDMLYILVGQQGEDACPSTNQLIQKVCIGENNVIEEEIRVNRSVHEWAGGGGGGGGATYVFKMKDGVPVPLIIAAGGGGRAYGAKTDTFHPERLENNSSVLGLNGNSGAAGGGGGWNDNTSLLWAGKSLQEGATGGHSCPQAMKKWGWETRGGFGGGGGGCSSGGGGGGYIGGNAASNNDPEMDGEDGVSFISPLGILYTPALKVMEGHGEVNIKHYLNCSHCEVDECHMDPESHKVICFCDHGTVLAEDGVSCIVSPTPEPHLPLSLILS
# Test Description: BLI (BLitz), mAb on Protein A tip, purified ALK in solution
# Experimental: Kinetic measurements of the monovalent affinity of the 96 humanized ALK antibody variants (Ab351-Ab446) were collected. Affinity ranking was performed using a BLitz® System (ForteBio, Menlo Park, Calif.). Humanized anti-ALK antibodies were immobilized at 0.5 mg/mL using Protein A tips. Once baseline stability was ensured, purified ALK proteins at 70 μg/mL were added. The resulting kinetic data were fit to a single binding site equation, from which the quoted monovalent KD values were derived.

Binder: Ab389 (antibody, V domains shown, humanized) VH: EVQLVQSGAEVKKPGTSVKLSCKASGYTFTSSAMQWVKQAPGQGLEWIGYIKPSSGYTKYNQKFKDKATLTADKSTSTAYMELSSLRSEDTAVYYCARDYYGSSSWFAYWGQGTLVTVSS VL: EIVMTQSPATLSTSPGERATLSCKASQNVGTNVAWYQQKPGQAPRALIYSASYRYSGVPARFSGSGSGTDFTLTISSVEPEDFAVYYCQQYNSYPYMYTFGQGTKLEIK
Kd, nM: 1550
--
Binder: Ab367 (antibody, V domains shown, humanized) VH: QVQLVQSGAEVAKPGASVKLSCKASGYTFTSYWMHWVKQAPGQGLEWIGYIKPSSGYTKYNQKFKDKATLTADKSTSTAYMELRSLRSDDTAVYYCARDYYGSSSWFAYWGQGTLVTVSS VL: DIVMTQSQAFMSVTVGEKVTITCKASQNVGTNVAWYQQKPDQAPKALIYSASYRYSGVPSRFSGSGSGTDFTLTISSLEAEDAATYYCQQYNSYPYMYTFGQGTKLEIK
Kd, nM: 114
--
Binder: Ab383 (antibody, V domains shown, humanized) VH: QVQLVQSGAEVAKPGSSVKLSCKASGYTFTSYWMHWVKQAPGQGLEWIGYIKPSSGYTKYNQKFKDKATLTADKSTSTAYMELSSLRSEDTAVYYCARDYYGSSSWFAYWGQGTLVTVSS VL: EIVMTQSPAFMSVTVGEKVTITCKASQNVGTNVAWYQQKPDQSPKALIYSASYRYSGVPSRFSGSGSGTDFTLTISSLEAEDAATYYCQQYNSYPYMYTFGQGTKLEIK
Kd, nM: 132
--
Binder: Ab390 (antibody, V domains shown, humanized) VH: EVQLVQSGAEVKKPGTSVKLSCKASGYTFTSYWMHWVRQARGQRLEWIGYIKPSSGYTKYAQKFQERVTLTADKSTSTAYMELSSLRSEDTAVYYCARDYYGSSSWFAYWGQGTLVTVSS VL: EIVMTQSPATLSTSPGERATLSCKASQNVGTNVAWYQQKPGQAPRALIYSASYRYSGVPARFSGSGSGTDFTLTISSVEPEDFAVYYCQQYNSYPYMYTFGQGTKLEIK
Kd, nM: 288
--
Binder: Ab406 (antibody, V domains shown, humanized) VH: EVQLVQSGAEVKKPGASVKLSCKASGYTFTSYWMHWVRQAPGQGLEWIGYIKPSSGYTKYAQKLQGRVTLTADKSTSTAYMELRSLRSDDTAVYYCARDYYGSSSWFAYWGQGTLVTVSS VL: EIVMTQSQATMSTSVGERATLSCKASQNVGTNVAWYQQKPGQSPKALIYSASYRYSGVPARFSGSGSGTDFTLTISSVEPEDFAVYYCQQYNSYPYMYTFGQGTKLEIK
Kd, nM: 110
